- test-system: AtGA2ox3 (Arabidopsis thaliana)
- Construct: made in house; host or cells: E. coli (crude cell lysate)
- Sequence (O64692 1-335): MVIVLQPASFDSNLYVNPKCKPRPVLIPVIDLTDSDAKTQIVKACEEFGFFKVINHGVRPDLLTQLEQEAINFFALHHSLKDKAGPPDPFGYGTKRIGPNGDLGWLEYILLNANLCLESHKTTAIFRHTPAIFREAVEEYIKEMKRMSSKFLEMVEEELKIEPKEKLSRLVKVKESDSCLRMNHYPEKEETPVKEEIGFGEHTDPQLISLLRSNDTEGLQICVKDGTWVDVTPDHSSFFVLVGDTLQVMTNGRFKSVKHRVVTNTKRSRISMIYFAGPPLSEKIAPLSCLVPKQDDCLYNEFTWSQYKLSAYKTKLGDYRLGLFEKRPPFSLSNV
- test-name: Incubation of recombinant GA 2-oxidase AtGA2ox3 (E. coli lysate) with 14C-labelled GA substrates
- Type: biochemical
- experimental-conditions: E. coli cell lysate, 14C-labelled GA substrate and cofactors, 2.5 h, HPLC-radiomonitoring
Listed here: items and their measured 2β-Hydroxy GA product.
All answers are understood in % yield, so give the number only.

compound	units-text	2β-Hydroxy GA product
C=C1C[C@]23C[C@@]1(O)CC[C@H]2[C@@]12CCC[C@@](C)(C(=O)O1)[C@H]2[C@@H]3C(=O)O [GA20]	% yield	25
C=C1C[C@]23C[C@H]1CC[C@H]2[C@@]12CCC[C@@](C)(C(=O)O1)[C@H]2[C@@H]3C(=O)O [GA9]	% yield	100
C=C1C[C@]23C[C@H]1CC[C@H]2[C@@]12CC[C@H](O)[C@@](C)(C(=O)O1)[C@H]2[C@@H]3C(=O)O [GA4]	% yield	86

Proceed to the following item.
Query: Quick one: 2β-Hydroxy GA product of C=C1C[C@]23C[C@@]1(O)CC[C@H]2[C@@]12CC[C@H](O)[C@@](C)(C(=O)O1)[C@H]2[C@@H]3C(=O)O [GA1] ?
Reply: 100
